The values you see were collected from BindingDB's records for doi:10.7270/Q2PR7TCX.

- studySystem: UniProtKB Q13285
- experiment: inhibition of SF-1 LBD-driven luciferase – cell-based, CHO-K1, Gal4-SF-1 LBD, luciferase luminescence, counter-screen for RORA inhibitor project, dose response (AID 611)
quantity: pIC50
Scale note: pIC50 = -log10(concentration in M).

As a guide, the following entries are already answered.
O=C(c1ccc(Cl)cc1)N1CCCCC(Sc2nnc(-c3ccc4c(c3)OCO4)o2)C1=O (configuration not stated) :: 5.84
CC(C)Cn1c(N)c(C(=O)CSc2ccc3c(c2)OCCO3)c(=O)n(C)c1=O :: 5.28
COCCn1c(C)cc(C(=O)CSc2nnc(C)s2)c1C :: 5.46
COc1ccc(-c2noc(CCCC(=O)O)n2)cc1 :: 5.56
COCCn1c(C)cc(C(=O)COC(=O)c2[nH]nc3ccccc23)c1C :: 5.09
Cc1ccc(-c2nc(-c3ccccn3)no2)cc1Cl :: 5.65

# context switch: different compound, same pIC50
Recorded pIC50 (compound `CN=c1scc(C)n1N=Cc1ccc(O)cc1O` ): 5.71

----------
Each entry below carries its recorded pIC50.
- studySystem: Steroidogenic factor 1 (Homo sapiens, UniProt Q13285)
- Sequence (Q13285 whole entry, the tested form may be a part): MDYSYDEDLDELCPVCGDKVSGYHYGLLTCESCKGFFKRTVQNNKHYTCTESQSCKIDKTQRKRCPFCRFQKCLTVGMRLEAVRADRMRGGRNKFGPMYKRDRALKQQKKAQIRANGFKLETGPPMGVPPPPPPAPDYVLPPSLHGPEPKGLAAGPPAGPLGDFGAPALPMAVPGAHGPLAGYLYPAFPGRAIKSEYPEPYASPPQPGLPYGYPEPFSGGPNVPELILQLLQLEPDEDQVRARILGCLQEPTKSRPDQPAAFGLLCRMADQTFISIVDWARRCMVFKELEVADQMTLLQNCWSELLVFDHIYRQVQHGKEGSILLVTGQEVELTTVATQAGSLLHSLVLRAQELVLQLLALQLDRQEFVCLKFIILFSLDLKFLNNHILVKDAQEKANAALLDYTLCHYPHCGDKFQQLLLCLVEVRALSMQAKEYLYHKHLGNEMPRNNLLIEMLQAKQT
- experiment: inhibition of SF-1 LBD-driven luciferase – cell-based, CHO-K1, Gal4-SF-1 LBD, luciferase luminescence, counter-screen for RORA inhibitor project, dose response (AID 611)
pIC50 is defined as minus the log10 of a concentration measured in mol/L.

CCOC(=O)CS(=O)(=O)c1nc(-c2ccccc2)cc(C(F)(F)F)n1 :: 5.01
COc1cccc2sc(Nc3nc(-c4ccccn4)cs3)nc12 :: 5.41
COc1ccc(CC(=O)Nc2cccc(-c3nnc(-c4cccc(C)c4)o3)c2)cc1OC :: 5.23
COc1ccc(C(=O)Nn2c(SCC(=O)NCC3CCCO3)nc3ccccc3c2=O)cc1 (centres undefined) :: 5.35
Fc1ccc2[nH]c3c(N4CCN(Cc5ccc6c(c5)OCO6)CC4)ncnc3c2c1 :: 5.47

Recorded result, `Cc1ccc2nc(-c3ccccc3)cn2c1` , pIC50: 5.71

In plain terms, COc1cccc(N2CCN(c3ncnc4c3[nH]c3ccc(F)cc34)CC2C)c1 (centres undefined) has a documented pIC50 of 5.84

# pIC50 (molecule: `Nc1nc(Cl)nc2c1ncn2[C@H]1C[C@H](O)[C@@H](CO)O1` ) is 6.18

Measured pIC50 of `Cc1ccc2[nH]c3c(N4CCCCCC4)ncnc3c2c1` : 5.13

Per the records, this molecule ( `O=C1C(=CNc2ccc3c(c2)OCO3)CCc2ccccc21` ) has pIC50 equal to 5.48

Kindly note the recorded pIC50 for `CCc1ccc(-c2cn3nc(C)c(C)nc3n2)cc1` , which is 5.76

Entry `CCOC(=O)N1CCN(C(=O)C2CCN(c3ncnc4c3sc3cccc(F)c34)CC2)CC1` ; pIC50 = 5.19

----------
- studySystem: Steroidogenic factor 1 (Homo sapiens)
- experiment: inhibition of SF-1 LBD-driven luciferase – cell-based, CHO-K1, Gal4-SF-1 LBD, luciferase luminescence, counter-screen for RORA inhibitor project, dose response (AID 611)
- conditionParameters: inactive by the depositor's call
As shown below, each of these compounds has a reported IC50 value.
# number only, unit µM dropped from output

In the examples that follow, each entry is paired with its recorded IC50.
CC1(C)CC(=O)C2=C(C1)Oc1nc3ccccc3cc1C2C(C#N)C#N (stereo not given) :: 12.2
CCCCN(CCCC)S(=O)(=O)c1ccc(C(=O)Nc2nnc(CSC)o2)cc1 :: 24.4
Cc1ccccc1NC(=O)N1CCCC(c2nc(-c3ccc(C(C)C)cc3)no2)C1 (stereo not given) :: 12.4
Cc1ccc(F)cc1NC(=O)Cc1nn(C)c(=O)c2ccccc12 :: 12.2
Cc1noc(C)c1S(=O)(=O)Nc1ccc(C(=O)N2CCN(c3ccc(Cl)cc3)CC2)cc1 :: 21.1

Reported IC50 of `Cc1cc(C)nc(SC2=CS(=O)(=O)c3ccccc32)n1` : 13

Sure, the documented IC50 for `CCOc1cc(C(=O)N2CCc3cc(OC)c(OC)cc3C2)ccc1OC(F)F` is 10.6

// IC50 lookup, compound = `N#C/C(=C/c1ccc(N2CCCCCC2)o1)c1ccc(F)cc1` , result: 18.5

For record `Cc1ccc2nc(C(F)(F)F)c(C#N)c(N)c2c1` the listed IC50 is 11.6

Lab note: measured IC50 of Cc1ccc2c(c1)nnn2C1CCN(S(=O)(=O)c2ccc(C(=O)N3C(C)CCCC3C)cc2)CC1 (stereo not given) was 10.6

Entry `Cc1ccc2[nH]c3c(N4CCN(Cc5ccc6c(c5)OCO6)CC4)ncnc3c2c1` ; IC50 = 10.2

Input `COc1ccccc1-c1cc(C(F)(F)F)nc(S(=O)(=O)CCCC(=O)Nc2cc(C)on2)n1` . Output IC50: 13.2

Field IC50 (entry `CCc1c(C)nc2ncnn2c1NCCc1ccc(OC)cc1` ) reads 11.6

Just so you know, measured IC50 for `COc1cccc(Cn2c(NCc3ccco3)nc3c2c(=O)n(C)c(=O)n3C)c1` came out at 10.7

According to the records, this compound `Cc1ccc(S(=O)(=O)NCc2ccncc2)cc1` displays IC50 of 11.6
